testSystem: GST-Co-NF-kB (Capsaspora owczarzaki, UniProt F1ARL5 200-546)
Sequence: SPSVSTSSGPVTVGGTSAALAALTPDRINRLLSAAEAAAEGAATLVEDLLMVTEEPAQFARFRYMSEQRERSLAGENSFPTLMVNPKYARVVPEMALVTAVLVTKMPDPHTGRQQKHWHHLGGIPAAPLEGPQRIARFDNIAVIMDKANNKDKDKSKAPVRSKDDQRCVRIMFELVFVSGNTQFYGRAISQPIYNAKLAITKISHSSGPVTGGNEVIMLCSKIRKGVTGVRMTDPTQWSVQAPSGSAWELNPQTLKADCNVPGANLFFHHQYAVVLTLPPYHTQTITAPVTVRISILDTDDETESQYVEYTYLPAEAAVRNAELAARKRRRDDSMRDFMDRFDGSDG
assaySummary: protein-binding microarray (PBM); PBM: ~300 nM protein, 6 mM HEPES pH 7.8, 80 mM KCl, 0.5 mM EDTA, 0.5 mM EGTA, 6% glycerol, 35 ng/ul poly-dIdC, 1% milk, 1 h, room temperature; Ap Aiptasia and Nv Nematostella (sea anemones) / Co Capsaspora / Aq Amphimedon (sponge) / Dm Drosophila / Hu human; RHD is the Rel homology domain; high values mean tight binding
experimentalContext: dsDNA, one strand shown
readoutName: binding signal (z-score)
API: value field is a number in z-score; no unit string.

Worked examples follow.
• CCGATTAACATCAACTACCCCCCTGATGTTAATCGGGTCTTGATTCGCTTGACGCTGCTG = 4.43
• CCGATTAACATCAGGGGACTCACTGATGTTAATCGGGTCTTGATTCGCTTGACGCTGCTG = 3.05
• CCGATTAACATCAGGGGAAACACTGATGTTAATCGGGTCTTGATTCGCTTGACGCTGCTG = 7.63
• CCGATTAACATCAGGGGTAAATATGATGTTAATCGGGTCTTGATTCGCTTGACGCTGCTG = 7.48
• CCGATTAACATCAGGGATTCACCTGATGTTAATCGGGTCTTGATTCGCTTGACGCTGCTG = 1.03

Turning now to a further sequence:
Q: Quick one: binding signal for "CCGATTAACATCAGAAAGCCCCCTGATGTTAATCGGGTCTTGATTCGCTTGACGCTGCTG" ?
A: 2.16
